- Test system: 843126-344-R-J1-PDC complex spheroid viability;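 also: spheroids exposed to drugs for seven days before readout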
- Assay: Anticancer human tumor 843126-344-R-J1-PDC patient-derived melanoma cell line growth inhibition [POLQ]
- Condition Parameters: second compound 0.1 µM; first compound 0.01 µM; active compounds read low
What viability, T/C was measured for each of the following?
Please respond with the number in % and leave the unit unwritten.

For CCc1c2c(nc3ccc(O)cc13)-c1cc3c(c(=O)n1C2)COC(=O)[C@]3(O)CC + Nc1ccc(C#CCN(C(=O)Cc2ncc(C(F)(F)F)cc2C(F)(F)F)c2ccc(F)cc2)nn1 the compound record lists viability, T/C as 47.4

For C=CCn1c(=O)c2cnc(Nc3ccc(N4CCN(C)CC4)cc3)nc2n1-c1cccc(C(C)(C)O)n1 + Nc1ccc(C#CCN(C(=O)Cc2ncc(C(F)(F)F)cc2C(F)(F)F)c2ccc(F)cc2)nn1 the compound record lists viability, T/C as 92.1

For C=CCn1c(=O)c2cnc(Nc3ccc(N4CCN(C)CC4)cc3)nc2n1-c1cccc(C(C)(C)O)n1 + Cc1cccc(N(C)C(=O)C2C(O)CCN2c2nc(C)cc(C(F)(F)F)c2C#N)c1 the compound record lists viability, T/C as 113

For CC[C@@]1(O)C(=O)OCc2c1cc1n(c2=O)Cc2cc3c(CN(C)C)c(O)ccc3nc2-1 + Cc1cccc(N(C)C(=O)C2C(O)CCN2c2nc(C)cc(C(F)(F)F)c2C#N)c1 the compound record lists viability, T/C as 80.9

For CC[C@@]1(O)C(=O)OCc2c1cc1n(c2=O)Cc2cc3c(CN(C)C)c(O)ccc3nc2-1 + Nc1ccc(C#CCN(C(=O)Cc2ncc(C(F)(F)F)cc2C(F)(F)F)c2ccc(F)cc2)nn1 the compound record lists viability, T/C as 87.7
